run description: High temperature test (60° C. incubator)
Type: physicochemical
test parameters: 60° C., Day 0; hydrochloride
Counter-ions that a name gives are not always drawn.
observation type: Loss on drying (%)
Give a bare numeral; the unit % is implied.

Prompt: Item under review: Cc1nc(Nc2ccc(F)cc2)nc(N2CCc3ccccc3C2C)c1C (single isomer, unassigned) [revaprazan hydrochloride crystalline form V] . Reported Loss on drying (%)?
Completion: 0.29

Prompt: Field request: Loss on drying (%) | item: Cc1nc(Nc2ccc(F)cc2)nc(N2CCc3ccccc3C2C)c1C (single isomer, unassigned) [revaprazan hydrochloride crystalline form II]
Completion: 0.23

Prompt: What does the data say about its Loss on drying (%)? Entry: Cc1nc(Nc2ccc(F)cc2)nc(N2CCc3ccccc3C2C)c1C (single isomer, unassigned) [revaprazan hydrochloride crystalline form IV]
Completion: 0.25

Prompt: Which value of Loss on drying (%) has been reported for Cc1nc(Nc2ccc(F)cc2)nc(N2CCc3ccccc3C2C)c1C (single isomer, unassigned) [revaprazan hydrochloride crystalline form I] in the records?
Completion: 0.21

---

run description: High humidity test (25° C., relative humidity 75±5%)
Assay type: physicochemical
test parameters: 25° C., RH 75±5%, Day 0; hydrochloride
Counter-ions that a name gives are not always drawn.
observation type: Purity (%)
Answer format: numeric, % implied, no suffix.

Prompt: Dear colleague, I am looking for the recorded Purity (%) of the following compound: Cc1nc(Nc2ccc(F)cc2)nc(N2CCc3ccccc3C2C)c1C (single isomer, unassigned) [revaprazan hydrochloride crystalline form I]
Completion: 99.96

Prompt: What value of Purity (%) has been recorded for this entry: Cc1nc(Nc2ccc(F)cc2)nc(N2CCc3ccccc3C2C)c1C (single isomer, unassigned) [revaprazan hydrochloride crystalline form IV]
Completion: 99.93

Prompt: Record request: Purity (%) value, item Cc1nc(Nc2ccc(F)cc2)nc(N2CCc3ccccc3C2C)c1C (single isomer, unassigned) [revaprazan hydrochloride crystalline form II]
Completion: 99.94

Prompt: Reported Purity (%), compound Cc1nc(Nc2ccc(F)cc2)nc(N2CCc3ccccc3C2C)c1C (single isomer, unassigned) [revaprazan hydrochloride crystalline form III] : ____
Completion: 99.95

Prompt: Give its Purity (%) value. Item: Cc1nc(Nc2ccc(F)cc2)nc(N2CCc3ccccc3C2C)c1C (single isomer, unassigned) [revaprazan hydrochloride crystalline form V]
Completion: 99.94

---

Kindly state Purity (%) for each of the entries shown.
run description: Light illumination test (intense light, 4500±500 Lx)
Type: physicochemical
test parameters: light 4500±500 Lx, Day 0; hydrochloride
Counter-ions that a name gives are not always drawn.
# unit: % | format: bare number

Prompt: Recorded Purity (%) of Cc1nc(Nc2ccc(F)cc2)nc(N2CCc3ccccc3C2C)c1C (single isomer, unassigned) [revaprazan hydrochloride crystalline form II] , please.
Completion: 99.94

Prompt: // query Purity (%) value for entry Cc1nc(Nc2ccc(F)cc2)nc(N2CCc3ccccc3C2C)c1C (single isomer, unassigned) [revaprazan hydrochloride crystalline form IV]
Completion: 99.93

Prompt: Find the recorded Purity (%) belonging to Cc1nc(Nc2ccc(F)cc2)nc(N2CCc3ccccc3C2C)c1C (single isomer, unassigned) [revaprazan hydrochloride crystalline form V] and report it.
Completion: 99.94

Prompt: // Purity (%) lookup, key: Cc1nc(Nc2ccc(F)cc2)nc(N2CCc3ccccc3C2C)c1C (single isomer, unassigned) [revaprazan hydrochloride crystalline form I]
Completion: 99.96

---

run description: Light illumination test (intense light, 4500±500 Lx)
Type: physicochemical
test parameters: light 4500±500 Lx, Day 0; hydrochloride
Counter-ions that a name gives are not always drawn.
observation type: Relevant substances

{"molecule": "Cc1nc(Nc2ccc(F)cc2)nc(N2CCc3ccccc3C2C)c1C (single isomer, unassigned) [revaprazan hydrochloride crystalline form II]", "observation type": "Relevant substances", "value observed": "Not detected"}
{"molecule": "Cc1nc(Nc2ccc(F)cc2)nc(N2CCc3ccccc3C2C)c1C (single isomer, unassigned) [revaprazan hydrochloride crystalline form I]", "observation type": "Relevant substances", "value observed": "Not detected"}
{"molecule": "Cc1nc(Nc2ccc(F)cc2)nc(N2CCc3ccccc3C2C)c1C (single isomer, unassigned) [revaprazan hydrochloride crystalline form IV]", "observation type": "Relevant substances", "value observed": "Undetected"}
{"molecule": "Cc1nc(Nc2ccc(F)cc2)nc(N2CCc3ccccc3C2C)c1C (single isomer, unassigned) [revaprazan hydrochloride crystalline form V]", "observation type": "Relevant substances", "value observed": "Undetected"}

---

Give Loss on drying (%) for every item shown.
run description: Light illumination test (intense light, 4500±500 Lx)
Assay type: physicochemical
test parameters: light 4500±500 Lx, Day 0; hydrochloride
Counter-ions that a name gives are not always drawn.
Remember to put the unit after the number in your answer.

Prompt: Would you mind telling me what Loss on drying (%) value was observed for Cc1nc(Nc2ccc(F)cc2)nc(N2CCc3ccccc3C2C)c1C (single isomer, unassigned) [revaprazan hydrochloride crystalline form V] ?
Completion: 0.24%

Prompt: What value of Loss on drying (%) has been reported for the following compound? Cc1nc(Nc2ccc(F)cc2)nc(N2CCc3ccccc3C2C)c1C (single isomer, unassigned) [revaprazan hydrochloride crystalline form II]
Completion: 0.25%

Prompt: Bench note: what Loss on drying (%) did Cc1nc(Nc2ccc(F)cc2)nc(N2CCc3ccccc3C2C)c1C (single isomer, unassigned) [revaprazan hydrochloride crystalline form I] show?
Completion: 0.27%

Prompt: Name the recorded Loss on drying (%) for Cc1nc(Nc2ccc(F)cc2)nc(N2CCc3ccccc3C2C)c1C (single isomer, unassigned) [revaprazan hydrochloride crystalline form IV] .
Completion: 0.27%

---

run description: Light illumination test (intense light, 4500±500 Lx)
Format: physicochemical
test parameters: light 4500±500 Lx, 10th day; hydrochloride
Where a name gives a salt, the structure may show the parent alone.
Give measured Loss on drying (%) for each item. Keep answers brief.
Express your answer in %, writing the number without its unit.

Prompt: Bench note: what Loss on drying (%) did Cc1nc(Nc2ccc(F)cc2)nc(N2CCc3ccccc3C2C)c1C (single isomer, unassigned) [revaprazan hydrochloride crystalline form I] show?
Completion: 0.30

Prompt: Look up Loss on drying (%) for this molecule: Cc1nc(Nc2ccc(F)cc2)nc(N2CCc3ccccc3C2C)c1C (single isomer, unassigned) [revaprazan hydrochloride crystalline form IV]
Completion: 0.31

Prompt: Which Loss on drying (%) reading was recorded for the molecule Cc1nc(Nc2ccc(F)cc2)nc(N2CCc3ccccc3C2C)c1C (single isomer, unassigned) [revaprazan hydrochloride crystalline form II] ?
Completion: 0.28

Prompt: State the recorded Loss on drying (%) for this entry: Cc1nc(Nc2ccc(F)cc2)nc(N2CCc3ccccc3C2C)c1C (single isomer, unassigned) [revaprazan hydrochloride crystalline form V]
Completion: 0.30

---

run description: Accelerated test (40±2° C., relative humidity 75±5%, 6 months, sealed polyethylene film bag)
Type: physicochemical
test parameters: 40±2° C., RH 75±5%, Month 0; hydrochloride
Counter-ions that a name gives are not always drawn.
observation type: Relevant substances

{"compound": "Cc1nc(Nc2ccc(F)cc2)nc(N2CCc3ccccc3C2C)c1C (single isomer, unassigned) [revaprazan hydrochloride crystalline form III]", "value observed": "Undetected"}
{"compound": "Cc1nc(Nc2ccc(F)cc2)nc(N2CCc3ccccc3C2C)c1C (single isomer, unassigned) [revaprazan hydrochloride crystalline form IV]", "value observed": "Undetected"}
{"compound": "Cc1nc(Nc2ccc(F)cc2)nc(N2CCc3ccccc3C2C)c1C (single isomer, unassigned) [revaprazan hydrochloride crystalline form V]", "value observed": "Undetected"}

---

run description: High humidity test (25° C., relative humidity 75±5%)
Assay type: physicochemical
test parameters: 25° C., RH 75±5%, 10th day; hydrochloride
Method: Revaprazan hydrochloride crystalline form I is placed in an incubator of 25° C. (relative humidity of 75±5%), and is sampled on the 5th day and 10th day for detection. Revaprazan hydrochloride crystalline form II is placed in an incubator of 25° C. (relative humidity of 75±5%), and is sampled on the 5th day and 10th day for detection. Revaprazan hydrochloride polymorph III is placed in an incubator of 25° C. (relative humidity of 75±5%), and is sampled on the 5th day and the 10th day for detection. […]
Counter-ions that a name gives are not always drawn.
observation type: Weight gain upon moisture absorption (%)
Write the number in % without appending the unit.

Prompt: Can you share its Weight gain upon moisture absorption (%)? I mean this compound: Cc1nc(Nc2ccc(F)cc2)nc(N2CCc3ccccc3C2C)c1C (single isomer, unassigned) [revaprazan hydrochloride crystalline form IV]
Completion: 0.62

Prompt: // lookup Weight gain upon moisture absorption (%) for Cc1nc(Nc2ccc(F)cc2)nc(N2CCc3ccccc3C2C)c1C (single isomer, unassigned) [revaprazan hydrochloride crystalline form III]
Completion: 0.59

Prompt: Fill blank: measured Weight gain upon moisture absorption (%) of the compound Cc1nc(Nc2ccc(F)cc2)nc(N2CCc3ccccc3C2C)c1C (single isomer, unassigned) [revaprazan hydrochloride crystalline form V] is ____.
Completion: 0.66

Prompt: Please look up its Weight gain upon moisture absorption (%): Cc1nc(Nc2ccc(F)cc2)nc(N2CCc3ccccc3C2C)c1C (single isomer, unassigned) [revaprazan hydrochloride crystalline form II]
Completion: 0.64

Prompt: Which value of Weight gain upon moisture absorption (%) has been reported for Cc1nc(Nc2ccc(F)cc2)nc(N2CCc3ccccc3C2C)c1C (single isomer, unassigned) [revaprazan hydrochloride crystalline form I] in the records?
Completion: 0.63

Value source: patent US20170334877A1
